Parameter: ELISA signal. Scope: all listed entries.
Target: T1, C-reactive protein (CRP) from human pleural fluid (Homo sapiens, UniProt P02741)
T1 construct: C-reactive protein, human, purified from pleural fluid; source: bought: LEE Biosolutions (from human pleural fluid)
T1 sequence (P02741 19-224): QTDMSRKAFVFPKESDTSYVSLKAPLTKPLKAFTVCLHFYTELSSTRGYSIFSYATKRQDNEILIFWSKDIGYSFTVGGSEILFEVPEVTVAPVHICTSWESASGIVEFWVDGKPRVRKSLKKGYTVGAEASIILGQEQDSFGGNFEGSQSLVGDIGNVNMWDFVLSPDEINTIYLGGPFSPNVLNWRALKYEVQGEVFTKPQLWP
Assay: ELISA; CRP (0.5 ug/well) or BSA coated overnight at 4 C; purified nanobodies 0.5 ug/well (A6, A12, B9, H7) or 0.1 ug/well (E12) in 2% BSA in PBS, 2 h at room temperature; anti-His and anti-mouse HRP, TMB
Conditions: both partners purified

>  <binder>
anti-CRP nanobody H7 fused to 6xHis-SpyTag (VHH, pET14-derived vector) VHH: EVQLQASGGGLVQAGGSLRLSCAASGRTFSSYATGWYRQAPGKERELVAAISSGGSTYYADSVKGRFTISRDNAKNTVYLQMNSLKAEDTAVYYCAGGRRVGVLIGNEYDYWGQGTLVTVSS

>  <ELISA signal>
1.47

$$$$
>  <binder>
anti-CRP nanobody A6 fused to 6xHis-SpyTag (VHH, pET14-derived vector) VHH: EVQLQASGGGLVRPGGSLRLSCAVSGGTLSNYAVGWFRRAPGNQRELVATFTSGGTTLYADSVKGRFTISRDNLKNTVYLQMNSLKPEDTAVYYCAAKPGRASSQATDYDAWGQGTQVTVSS

>  <ELISA signal>
0.476

$$$$
>  <binder>
anti-CRP nanobody E12 fused to 6xHis-SpyTag (VHH, pET14-derived vector; In the biosensor it was held by SpyCatcher attached to the gold electrode) VHH: EVQLQASGGGLVQAGGSLRLSCAASRRPSSFKVMGWYRQAPGKQRELVARITSGGSTDYADSVKGRFTISRDNAKNTVYLQMNSLEPEDTAVYYCNAYRWGRDNWGQGTQVTVSS

>  <ELISA signal>
2.84

$$$$
>  <binder>
anti-CRP nanobody B9 fused to 6xHis-SpyTag (VHH, pET14-derived vector) VHH: EVQLQASGGGSVQAGGSLRLSCATSGIIFRNNIMTWYRQAPGKNRELVATITTGGSTNYSDSVKGRFTISRDNTKNTVYLQMSNLKPDDTGVYYCNARRNRFLTGSYGQGTQVTVSS

>  <ELISA signal>
1.56

$$$$
>  <binder>
anti-CRP nanobody A12 fused to 6xHis-SpyTag (VHH, pET14-derived vector) VHH: EVQLQASGGGLVQAGGSLGLSCAASTRAFSTYAMGWFRQVPGKEREFVAAISSGGSTVYADSVKGRFTISRDNAKNTVYLQMNNLRPEDTAVYYCAARQGIVVRSPTRMDYWGQGTQVTVSS

>  <ELISA signal>
1.23

$$$$
